# credit: ChEMBL document CHEMBL5352479

# Test system: Hep 3B2
# method summary: Induction of apoptosis in human Hep3B cells assessed as necrotic cells at 3 uM incubated for 48 hrs by Annexin V-FITC/PI staining based flow cytometry analysis (reference value: 6.12%)
# Type: functional
property: Activity (%)
Give the number; % is assumed, so skip it.

Answered cases to consult:
COc1c(-c2cc(O)c3c(c2)CC(C(C)(C)O)O3)oc2c(CC=C(C)C)c(O)cc(O)c2c1=O (stereo not given)	2.55
C=C(C)C(O)Cc1cc(-c2oc3c(CC=C(C)C)c(O)cc(O)c3c(=O)c2OC)cc(O)c1O (stereo not given)	2.75
COc1c(-c2ccc(O)c(CC=C(C)C)c2)oc2cc(O)cc(O)c2c1=O	2.29
C=C(C)C(O)Cc1cc(-c2oc3c(CC=C(C)C)c(O)cc(O)c3c(=O)c2OC)ccc1O (stereo not given)	0.923

Which Activity value belongs to COc1c(-c2cc(O)c3c(c2)CC(O)C(C)(C)O3)oc2c(CC=C(C)C)c(O)cc(O)c2c1=O (stereo not given) ?
2.34

###

# System: Hep 3B2
# method summary: Cytotoxicity against human Hep3B cells assessed as inhibition of cell proliferation incubated for 48 hrs by MTT assay
# Assay type: functional, cell-based
Threshold 20 µM: IC50 strictly smaller gives MET, otherwise NOT MET.

Sample answers from the record:
CC(C)=CCc1cc([C@H]2Oc3c(CC=C(C)C)c(O)cc(O)c3C(=O)[C@@H]2O)cc(CC=C(C)C)c1O	NOT MET
C=C(C)C(O)Cc1cc(-c2oc3c(CC=C(C)C)c(O)cc(O)c3c(=O)c2OC)cc(O)c1O (stereo unspecified)	MET
COc1c(-c2ccc(O)c(O)c2)oc2c3c(c(CC=C(C)C)c(O)c2c1=O)OC(C(C)(C)O)C3 (stereo unspecified)	MET

Is it true that IC50 reported for COc1c(-c2cc(O)c(O)c(CC=C(C)C)c2CC=C(C)C)oc2cc(O)cc(O)c2c1=O is less than 20 µM?
NOT MET

How about COc1c(-c2ccc(O)c(O)c2)oc2c(CC=C(C)C)c(O)c(CC=C(C)C)c(O)c2c1=O ?
MET

How about COc1c(-c2ccc(O)c(CC=C(C)C)c2)oc2c(CC=C(C)C)c(O)cc(O)c2c1=O ?
MET

###

# Tested on: Hep 3B2
# method summary: Cytotoxicity against human Hep3B cells assessed as inhibition of cell proliferation incubated for 48 hrs by MTT assay
# Type: functional, cell-based
pIC50: −log10 of the molar value.
Decision: pIC50 compared against 6; not below it gives yes, below it gives no.

Sample answers from the record:
COc1c(-c2ccc(O)c(O)c2)oc2c(CC=C(C)C)c(O)cc(O)c2c1=O	no
COc1c(-c2cc(O)c3c(c2)CC(C(C)(C)O)O3)oc2c(CC=C(C)C)c(O)cc(O)c2c1=O (stereo not drawn)	yes
COc1c(-c2cc3c(c(O)c2CC=C(C)C)OC(C)(C)C=C3)oc2c(CC=C(C)C)c(O)cc(O)c2c1=O	no

# input for lookup
Hello, I need to know if CNC(=O)c1cc(Oc2ccc(NC(=O)Nc3ccc(Cl)c(C(F)(F)F)c3)cc2)ccn1 has measured pIC50 not below 6. Thanks!
no

###

# System: Hep 3B2
# method summary: Cytotoxicity against human Hep3B cells assessed as inhibition of cell proliferation incubated for 48 hrs by MTT assay
# Assay type: functional, cell-based
property: pIC50
By convention, pIC50 is the negative base-10 log of a molar concentration.

Answered cases to consult:
COc1c(-c2ccc(O)c(CC=C(C)C)c2)oc2cc(O)cc(O)c2c1=O	6.00
COc1c(-c2cc(O)c(O)c(CC=C(C)C)c2)oc2c3c(cc(O)c2c1=O)OC(C(C)(C)O)C3 (centres undefined)	5.44
C=C(C)C(O)Cc1c(O)c(CC=C(C)C)c2oc(-c3ccc(O)c(O)c3)c(OC)c(=O)c2c1O (centres undefined)	4.43

Which pIC50 value belongs to CC(C)=CCc1cc(-c2oc3c(CC=C(C)C)c(O)cc(O)c3c(=O)c2O)ccc1O ?
5.94

How about CC1(C)Oc2ccc(-c3oc4cc(O)cc(O)c4c(=O)c3O)cc2CC1O (centres undefined) ?
5.02

How about C=C(C)C(O)Cc1cc(-c2oc3c(CC=C(C)C)c(O)cc(O)c3c(=O)c2OC)ccc1O (centres undefined) ?
6.39
